# target-or-test-system: Ectonucleotide pyrophosphatase/phosphodiesterase family member 1 (Homo sapiens)
# Sequence (P22413 whole entry): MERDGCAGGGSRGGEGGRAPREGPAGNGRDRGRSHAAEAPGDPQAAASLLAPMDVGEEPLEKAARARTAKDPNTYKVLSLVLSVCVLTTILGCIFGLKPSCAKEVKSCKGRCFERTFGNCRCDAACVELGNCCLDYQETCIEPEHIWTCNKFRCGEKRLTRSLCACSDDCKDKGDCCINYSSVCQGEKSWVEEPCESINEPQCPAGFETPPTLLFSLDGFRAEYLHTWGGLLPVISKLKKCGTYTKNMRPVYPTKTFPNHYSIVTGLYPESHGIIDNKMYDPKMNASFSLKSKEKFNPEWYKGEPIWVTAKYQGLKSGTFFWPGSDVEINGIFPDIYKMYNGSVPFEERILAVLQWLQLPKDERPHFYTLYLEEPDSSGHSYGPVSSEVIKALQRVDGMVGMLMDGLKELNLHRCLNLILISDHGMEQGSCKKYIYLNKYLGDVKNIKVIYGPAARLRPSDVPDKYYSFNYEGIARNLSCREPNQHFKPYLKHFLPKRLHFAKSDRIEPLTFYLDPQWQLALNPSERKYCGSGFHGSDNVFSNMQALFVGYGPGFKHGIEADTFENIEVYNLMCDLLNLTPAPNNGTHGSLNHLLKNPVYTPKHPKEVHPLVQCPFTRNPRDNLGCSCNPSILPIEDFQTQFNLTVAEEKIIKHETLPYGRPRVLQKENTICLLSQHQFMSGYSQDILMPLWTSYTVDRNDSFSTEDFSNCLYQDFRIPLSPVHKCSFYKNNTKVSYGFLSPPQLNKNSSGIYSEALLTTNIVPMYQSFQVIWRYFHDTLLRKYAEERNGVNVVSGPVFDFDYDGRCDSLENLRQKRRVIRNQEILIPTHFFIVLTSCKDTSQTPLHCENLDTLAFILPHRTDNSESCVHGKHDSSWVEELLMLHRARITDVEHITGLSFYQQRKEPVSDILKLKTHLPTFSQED
Exercise: state measured IC50 for each of the molecules provided.
Numbers only, in nM.

Sample records with IC50:
>>> experimental_result("COc1cc2ncnc(N3CC(CCN(C)S(N)(=O)=O)C3)c2cc1OC")
855
>>> experimental_result("COc1cc2nc(C(F)F)nc(N3CC(CCNS(N)(=O)=O)C3)c2cc1OC")
892

Now consider the entry below.
Return IC50 measured with Ectonucleotide pyrophosphatase/phosphodiesterase family member 1 (Homo sapiens) given this molecule: COc1ccc2c(N3CC(CCN(C)S(N)(=O)=O)C3)ncnc2c1
793

All values here come from BindingDB's records for patent US20240352046.
